I'd appreciate it if you could supply Cyno Primary Hepatocyte Editing % 500 values for the items below.
System: PCSK9 gene
experimentalDetails: PCSK9 gRNA/SpCas9 editing in primary cynomolgus hepatocytes (Tables 2, 22)
Assay type: cell-based, cynomolgus monkey
particulars: 500 ng/RNA/mL; SpCas9 mRNA MS002 1:1 by weight
In the oligonucleotide strings, read from the 5' end, every base follows the letter of its sugar. An asterisk marks phosphorothioate; unmarked linkages are phosphodiester. Other units and linkages are bracketed, terminal groups are in braces. A string of capitals states the bases alone. m = 2'-O-methyl; r = 2'-OH (RNA)
Numbers only, in %.

molecule	Cyno Primary Hepatocyte Editing % 500, %
GA195: PCSK9 gRNA; protospacer ACCACCGGGAAATCGAGGGC (SEQ ID NO: 189) (nucleic acid, sugars from the 5' end m3 r94 m3, linkages s3 o93 s3 (s phosphorothioate, o phosphodiester), T or U not given here) guide: ACCACCGGGAAAUCGAGGGCGUUUUAGAGCUAGAAAUAGCAAGUUAAAAUAAGGCUAGUCCGUUAUCAACUUGAAAAAGUGGCACCGAGUCGGUGCUUUU	4.77

# per-item lookup of Cyno Primary Hepatocyte Editing % 500; items listed below
1. GA175: PCSK9 gRNA; protospacer GAAGATGAGTGGCGACCTGC (SEQ ID NO: 169) (nucleic acid, sugars from the 5' end m3 r94 m3, linkages s3 o93 s3 (s phosphorothioate, o phosphodiester), T or U not given here) guide: GAAGAUGAGUGGCGACCUGCGUUUUAGAGCUAGAAAUAGCAAGUUAAAAUAAGGCUAGUCCGUUAUCAACUUGAAAAAGUGGCACCGAGUCGGUGCUUUU
2. GA178: PCSK9 gRNA; protospacer CTCCTTCAGCACCACCACGT (SEQ ID NO: 172) (nucleic acid) guide: mC*mU*mC*rCrUrUrCrArGrCrArCrCrArCrCrArCrGrUrGrUrUrUrUrArGrArGrCrUrArGrArArArUrArGrCrArArGrUrUrArArArArUrArArGrGrCrUrArGrUrCrCrGrUrUrArUrCrArArCrUrUrGrArArArArArGrUrGrGrCrArCrCrGrArGrUrCrGrGrUrGrCrU*mU*mU*mU

Outgoing:
1. 12.37
2. 5.78
